Just for reference, ChEMBL document CHEMBL3046880 is where these values come from.

Test system: Echinochloa crus-galli
Assay: Herbicidal activity against Echinochloa crus-galli (barnyard grass) assessed as growth inhibition at 150 g of active ingredient/ha administered using post-emergence treatment measured 15 days post treatment protocol under greenhouse conditions
Type: functional
Parameter Measured: growth inhibition (GI)

INSERT INTO results (mol, experimental_result) VALUES
  ('Cc1nn(-c2cc(NC(=O)Nc3ccccc3)c(F)cc2Br)c(=O)n1C(F)F', '<50%'),
  ('Cc1nn(-c2cc(N3C(=O)C4=C(CCCC4)C3=O)c(Cl)cc2Cl)c(=O)n1C(F)F', '50%'),
  ('Cc1nn(-c2cc(N3C(=O)c4ccccc4C3=O)c(Cl)cc2Cl)c(=O)n1C(F)F', '50%'),
  ('CCS(=O)(=O)Nc1cc(-n2nc(C)n(Cc3ccccc3/C(=N\OC)C(=O)OC)c2=O)c(F)cc1Cl', '50%'),
  ('Cc1nn(-c2cc(NS(C)(=O)=O)c(Cl)cc2Cl)c(=O)n1C(F)F', '<50%');

====

Assay: Phytotoxicity against Oryza sativa (rice) plant assessed as growth inhibition at 75 g of active ingredient/ha administered using post-emergence treatment measured 30 days post treatment protocol under greenhouse conditions
Format: organism-based
Details: in vivo, read-out: GI
Parameter Measured: inhibition at 720 h (%)

INSERT INTO results (mol, parameter_measured, experimental_result) VALUES
  ('CCS(=O)(=O)Nc1cc(-n2nc(C)n(Cc3ccccc3/C(=N\OC)C(=O)OC)c2=O)c(F)cc1Cl', 'inhibition at 720 h', 0);

====

Experiment: Phytotoxicity against Zea mays (maize) plant assessed as growth inhibition at 75 g of active ingredient/ha administered using post-emergence treatment measured 30 days post treatment protocol under greenhouse conditions
Type: organism-based
Conditions: in vivo, read-out: GI
Parameter Measured: inhibition at 720 h

INSERT INTO results (mol, parameter_measured, experimental_result) VALUES
  ('CCS(=O)(=O)Nc1cc(-n2nc(C)n(Cc3ccccc3/C(=N\OC)C(=O)OC)c2=O)c(F)cc1Cl', 'inhibition at 720 h', '40%');

====

Test system: Echinochloa crus-galli
Test: Herbicidal activity against Echinochloa crus-galli (barnyard grass) assessed as growth inhibition at 150 g of active ingredient/ha administered using post-emergence treatment measured 15 days post treatment protocol under greenhouse conditions
Type: functional
Parameter Measured: growth inhibition (GI)

INSERT INTO assay_data (compound, experimental_result) VALUES
  ('Cc1nn(-c2cc(N3C(=O)C4=C(CCCC4)C3=O)c(F)cc2Br)c(=O)n1C(F)F', '<50%'),
  ('Cc1nn(-c2cc(N3C(=O)C4CCCCC4C3=O)ccc2Cl)c(=O)n1C(F)F (configuration not stated)', '<50%'),
  ('Cc1nn(-c2cc(N3C(=O)C4=C(CCCC4)C3=O)c(Br)cc2F)c(=O)n1C(F)F', '50%'),
  ('Cc1nn(-c2cc(NC(=O)Nc3ccc(Cl)cc3)c(Cl)cc2Cl)c(=O)n1C(F)F', '<50%'),
  ('Cc1nn(-c2cc(N3C(=O)c4ccccc4C3=O)ccc2Cl)c(=O)n1C(F)F', '<50%'),
  ('Cc1nn(-c2cc(N3C(=O)C4CCCCC4C3=O)c(Br)cc2F)c(=O)n1C(F)F (configuration not stated)', '50%'),
  ('Cc1nn(-c2cc(N3C(=O)C4CCCCC4C3=O)c(F)cc2Br)c(=O)n1C(F)F (configuration not stated)', '<50%'),
  ('Cc1nn(-c2cc(N3C(=O)c4ccccc4C3=O)c(Br)cc2F)c(=O)n1C(F)F', '50%'),
  ('Cc1nn(-c2cc(NC(=O)Nc3ccc(Cl)cc3)c(Br)cc2F)c(=O)n1C(F)F', '<50%'),
  ('Cc1nn(-c2cc(NC(=O)Nc3ccc(Cl)cc3)ccc2Cl)c(=O)n1C(F)F', '<50%'),
  ('Cc1nn(-c2cc(N3C(=O)C4CCCCC4C3=O)c(Cl)cc2Cl)c(=O)n1C(F)F (configuration not stated)', '<50%'),
  ('Cc1nn(-c2cc(NC(=O)Nc3ccccc3)ccc2Cl)c(=O)n1C(F)F', '<50%');

====

Tested on: Digitaria sanguinalis
Experiment: Herbicidal activity against Digitaria sanguinalis (hairy crabgrass) assessed as growth inhibition at 150 g of active ingredient/ha administered using post-emergence treatment measured 15 days post treatment protocol under greenhouse conditions
Format: functional
Readings of growth inhibition (GI) for the listed molecules
Parameter Measured: growth inhibition (GI)

INSERT INTO results (molecule, experimental_result) VALUES
  ('Cc1nn(-c2cc(NC(=O)Nc3ccccc3)ccc2Cl)c(=O)n1C(F)F', '<50%'),
  ('Cc1nn(-c2cc(NS(C)(=O)=O)c(Cl)cc2Cl)c(=O)n1C(F)F [SULFENTRAZONE]', '<50%'),
  ('CCS(=O)(=O)Nc1cc(-n2nc(C)n(Cc3ccccc3/C(=N\OC)C(=O)OC)c2=O)c(F)cc1Cl', '50%'),
  ('Cc1nn(-c2cc(N3C(=O)C4=C(CCCC4)C3=O)c(F)cc2Br)c(=O)n1C(F)F', '<50%'),
  ('Cc1nn(-c2cc(N3C(=O)c4ccccc4C3=O)c(F)cc2Br)c(=O)n1C(F)F', '<50%'),
  ('Cc1nn(-c2cc(NC(=O)Nc3ccccc3)c(F)cc2Br)c(=O)n1C(F)F', '<50%'),
  ('Cc1nn(-c2cc(N3C(=O)c4ccccc4C3=O)ccc2Cl)c(=O)n1C(F)F', '<50%'),
  ('Cc1nn(-c2cc(NC(=O)Nc3ccccc3)c(Cl)cc2Cl)c(=O)n1C(F)F', '<50%'),
  ('Cc1nn(-c2cc(N3C(=O)C4=C(CCCC4)C3=O)ccc2Cl)c(=O)n1C(F)F', '<50%'),
  ('Cc1nn(-c2cc(N3C(=O)c4ccccc4C3=O)c(Br)cc2F)c(=O)n1C(F)F', '>80%'),
  ('Cc1nn(-c2cc(N3C(=O)C4CCCCC4C3=O)ccc2Cl)c(=O)n1C(F)F (centres undefined)', '<50%'),
  ('Cc1nn(-c2cc(NC(=O)Nc3ccc(Cl)cc3)c(Br)cc2F)c(=O)n1C(F)F', '<50%'),
  ('Cc1nn(-c2cc(N3C(=O)C4CCCCC4C3=O)c(Cl)cc2Cl)c(=O)n1C(F)F (centres undefined)', '<50%'),
  ('Cc1nn(-c2cc(NC(=O)Nc3ccc(Cl)cc3)c(F)cc2Br)c(=O)n1C(F)F', '<50%'),
  ('Cc1nn(-c2cc(N3C(=O)C4CCCCC4C3=O)c(F)cc2Br)c(=O)n1C(F)F (centres undefined)', '<50%'),
  ('Cc1nn(-c2cc(NC(=O)Nc3ccc(Cl)cc3)ccc2Cl)c(=O)n1C(F)F', '<50%'),
  ('Cc1nn(-c2cc(N3C(=O)C4=C(CCCC4)C3=O)c(Br)cc2F)c(=O)n1C(F)F', '50%'),
  ('Cc1nn(-c2cc(NC(=O)Nc3ccc(Cl)cc3)c(Cl)cc2Cl)c(=O)n1C(F)F', '<50%'),
  ('Cc1nn(-c2cc(NC(=O)Nc3ccccc3)c(Br)cc2F)c(=O)n1C(F)F', '<50%');

====

System: Digitaria sanguinalis
Assay: Herbicidal activity against Digitaria sanguinalis (hairy crabgrass) assessed as growth inhibition at 150 g of active ingredient/ha administered using post-emergence treatment measured 15 days post treatment protocol under greenhouse conditions
Assay type: functional
Parameter Measured: growth inhibition (GI) (%)

INSERT INTO assay_data (molecule, target_entity, parameter_measured, experimental_result) VALUES
  ('Cc1nn(-c2cc(N3C(=O)C4CCCCC4C3=O)c(Br)cc2F)c(=O)n1C(F)F (stereo not drawn)', 'Digitaria sanguinalis', 'growth inhibition (GI)', 50),
  ('Cc1nn(-c2cc(N3C(=O)C4=C(CCCC4)C3=O)c(Cl)cc2Cl)c(=O)n1C(F)F', 'Digitaria sanguinalis', 'growth inhibition (GI)', 50),
  ('Cc1nn(-c2cc(N3C(=O)c4ccccc4C3=O)c(Cl)cc2Cl)c(=O)n1C(F)F', 'Digitaria sanguinalis', 'growth inhibition (GI)', 50);

====

Test: Phytotoxicity against Oryza sativa (rice) plant assessed as growth inhibition at 300 g of active ingredient/ha administered using post-emergence treatment measured 30 days post treatment protocol under greenhouse conditions
Type: organism-based
Conditions: in vivo, read-out: GI
Parameter Measured: inhibition at 720 h

INSERT INTO assay_data (mol, experimental_result) VALUES
  ('CCS(=O)(=O)Nc1cc(-n2nc(C)n(Cc3ccccc3/C(=N\OC)C(=O)OC)c2=O)c(F)cc1Cl', '0%');

====

Experiment: Phytotoxicity against Oryza sativa (rice) plant assessed as growth inhibition at 150 g of active ingredient/ha administered using post-emergence treatment measured 30 days post treatment protocol under greenhouse conditions
Assay type: organism-based
Conditions: in vivo, read-out: GI
Parameter Measured: inhibition at 720 h (%)

INSERT INTO measurements (mol, experimental_result) VALUES
  ('CCS(=O)(=O)Nc1cc(-n2nc(C)n(Cc3ccccc3/C(=N\OC)C(=O)OC)c2=O)c(F)cc1Cl', 0);
